Experiment: T max in Rat at a oral dose of 5 mg/kg
Format: ADME, organism-based
Parameters: dose 5 mg/kg, route oral
Conditions: in vivo
readout: Tmax (min)
Write the answer as a number in min, unit excluded.

// Tmax lookup, key: C[C@]1(C(=O)N2CCOCC2)CO[C@H](c2nc(-c3ccc(F)cc3)c(-c3ccnc(NC4CC4)n3)[nH]2)OC1
30

###

Assay: Oral Bioavailability after intravenous administration (1 mg/kg) in rat
Assay type: ADME, organism-based
Conditions: in vivo, 5 mg/kg, in the assay text read “oral administration (5 mg/kg)” for “intravenous administration (1 mg/kg)”
readout: bioavailability (%)
Report the value in % with no unit label.

Would you kindly share the measured bioavailability for C[C@]1(C(=O)N2CCOCC2)CO[C@H](c2nc(-c3ccc(F)cc3)c(-c3ccnc(NC4CC4)n3)[nH]2)OC1 ?
48

###

Assay: Terminal half life after intravenous administration (1 mg/kg) in rat
Format: ADME, organism-based
Settings: in vivo
readout: half-life (h)
Please respond with the number in h and leave the unit unwritten.

Name the reported half-life value associated with the molecule C[C@]1(C(=O)N2CCOCC2)CO[C@H](c2nc(-c3ccc(F)cc3)c(-c3ccnc(NC4CC4)n3)[nH]2)OC1
1.2

###

Assay: Maximum plasma concentration in Rat at a oral dose of 5 mg/kg
Type: ADME, organism-based
Set-up: dose 5 mg/kg, route oral
Conditions: read-out: CPmax
readout: Cmax (ng/mL)
Express it in ng/mL; write the number only.

// returns reported Cmax for input C[C@]1(C(=O)N2CCOCC2)CO[C@H](c2nc(-c3ccc(F)cc3)c(-c3ccnc(NC4CC4)n3)[nH]2)OC1
620

###

Test: Oral bioavailability in rat
Format: ADME, organism-based
Conditions: in vivo
readout: bioavailability (%)
Reply with just the number (in %).

Value lookup for bioavailability; key = C[C@]1(C(=O)N2CCOCC2)CO[C@H](c2nc(-c3ccc(F)cc3)c(-c3ccnc(NCCCO)n3)[nH]2)OC1
2

// bioavailability lookup, key: C[C@]1(C(=O)N2CCOCC2)CO[C@H](c2nc(-c3ccc(F)cc3)c(-c3ccnc(NC4CC4)n3)[nH]2)OC1
29

Item under review: COCCCNc1nccc(-c2[nH]c([C@H]3OC[C@](C)(C(=O)N4CCOCC4)CO3)nc2-c2ccc(F)cc2)n1 . Reported bioavailability?
15

bioavailability lookup needed for COc1ccc(CNc2nccc(-c3[nH]c([C@H]4OC[C@](C)(C(=O)N5CCOCC5)CO4)nc3-c3ccc(F)cc3)n2)cc1 , thanks.
1

Name the reported bioavailability value associated with the compound C[C@H](Nc1nccc(-c2[nH]c([C@H]3OC[C@](C)(C(=O)N4CCOCC4)CO3)nc2-c2ccc(F)cc2)n1)c1ccccc1
10

Item C[C@]1(C(=O)N2CCOCC2)CO[C@H](c2nc(-c3ccc(F)cc3)c(-c3ccnc(Nc4ccccc4)n3)[nH]2)OC1 has what recorded bioavailability?
29

I have this compound here, C[C@]1(C(=O)N2CCOCC2)CO[C@H](c2nc(-c3ccc(F)cc3)c(-c3ccnc(NCc4ccccc4)n3)[nH]2)OC1 , and I need its recorded bioavailability.
24

Could you share which bioavailability value was measured for COc1cccc(Nc2nccc(-c3[nH]c([C@H]4OC[C@](C)(C(=O)N5CCOCC5)CO4)nc3-c3ccc(F)cc3)n2)c1 ?
6

Field request: bioavailability | item: C[C@]1(C(=O)N2CCOCC2)CO[C@H](c2nc(-c3ccc(F)cc3)c(-c3ccnc(NCc4ccccn4)n3)[nH]2)OC1
25

###

Experiment: Area under curve after intravenous administration (1 mg/kg) in rat
Assay type: ADME, organism-based
Conditions: in vivo
readout: AUC (ng·h/mL)
All answers are understood in ng·h/mL, so give the number only.

So what's the measured AUC for this one? C[C@]1(C(=O)N2CCOCC2)CO[C@H](c2nc(-c3ccc(F)cc3)c(-c3ccnc(NC4CC4)n3)[nH]2)OC1
580

###

Record form. Attribute: metabolised. Fill in for each entry.
Experiment: Stability (%) in rat liver microsomes
Assay type: ADME
Settings: read-out: % turnover
Hey, just the number and the unit after it is fine.

Please give the measured metabolised for this compound: C[C@]1(C(=O)N2CCOCC2)CO[C@H](c2nc(-c3ccc(F)cc3)c(-c3ccnc(N4CCCCC4)n3)[nH]2)OC1
99%

Reported metabolised, compound C[C@]1(C(=O)N2CCOCC2)CO[C@H](c2nc(-c3ccc(F)cc3)c(-c3ccnc(NC4CCCCC4)n3)[nH]2)OC1 : ____
98.6%

Please give the measured metabolised for this compound: C=CCNc1nccc(-c2[nH]c([C@H]3OC[C@](C)(C(=O)N4CCOCC4)CO3)nc2-c2ccc(F)cc2)n1
89.1%

# query: metabolised of entry CN(C)CCCNc1nccc(-c2[nH]c([C@H]3OC[C@](C)(C(=O)N4CCOCC4)CO3)nc2-c2ccc(F)cc2)n1
18%

Consider the compound COc1cccc(Nc2nccc(-c3[nH]c([C@H]4OC[C@](C)(C(=O)N5CCOCC5)CO4)nc3-c3ccc(F)cc3)n2)c1 and give its measured metabolised.
54.1%

Entry COc1ccc(CNc2nccc(-c3[nH]c([C@H]4OC[C@](C)(C(=O)N5CCOCC5)CO4)nc3-c3ccc(F)cc3)n2)cc1 : reported metabolised = ?
23.9%

Look up metabolised for this compound: C[C@]1(C(=O)N2CCOCC2)CO[C@H](c2nc(-c3ccc(F)cc3)c(-c3ccnc(NC4CC4)n3)[nH]2)OC1
43.6%

Need metabolised of C[C@]1(C(=O)N2CCOCC2)CO[C@H](c2nc(-c3ccc(F)cc3)c(-c3ccnc(NCc4cccs4)n3)[nH]2)OC1 , thanks.
92%

Which metabolised reading was recorded for the compound CN(C)CCNc1nccc(-c2[nH]c([C@H]3OC[C@](C)(C(=O)N4CCOCC4)CO3)nc2-c2ccc(F)cc2)n1 ?
29%

Please look up its metabolised: C[C@H](Nc1nccc(-c2[nH]c([C@H]3OC[C@](C)(C(=O)N4CCOCC4)CO3)nc2-c2ccc(F)cc2)n1)c1ccccc1
71%

# query: metabolised of entry C[C@]1(C(=O)N2CCOCC2)CO[C@H](c2nc(-c3ccc(F)cc3)c(-c3ccnc(NCc4ccc(F)cc4)n3)[nH]2)OC1
44.6%

What value of metabolised has been reported for the following compound? C[C@]1(C(=O)N2CCOCC2)CO[C@H](c2nc(-c3ccc(F)cc3)c(-c3ccnc(Nc4ccccc4)n3)[nH]2)OC1
51%

Which metabolised value belongs to CNc1nccc(-c2[nH]c([C@H]3OC[C@](C)(C(=O)N4CCOCC4)CO3)nc2-c2ccc(F)cc2)n1 ?
8.1%

Looking for the measured metabolised of C[C@]1(C(=O)N2CCOCC2)CO[C@H](c2nc(-c3ccc(F)cc3)c(-c3ccnc(NCCO)n3)[nH]2)OC1 , can you help?
18%

Which measured metabolised value corresponds to CN(C)c1nccc(-c2[nH]c([C@H]3OC[C@](C)(C(=O)N4CCOCC4)CO3)nc2-c2ccc(F)cc2)n1 ?
40.7%

Any idea what metabolised was measured for C[C@]1(C(=O)N2CCOCC2)CO[C@H](c2nc(-c3ccc(F)cc3)c(-c3ccnc(NCc4ccccn4)n3)[nH]2)OC1 ?
25%

Quick one: metabolised for C[C@]1(C(=O)N2CCOCC2)CO[C@H](c2nc(-c3ccc(F)cc3)c(-c3ccnc(NCCC(=O)O)n3)[nH]2)OC1 ?
3.5%

If you can, please state the reported metabolised value of C[C@]1(C(=O)N2CCOCC2)CO[C@H](c2nc(-c3ccc(F)cc3)c(-c3ccnc(NCC4CC4)n3)[nH]2)OC1 .
87%

Request the reported metabolised associated with C[C@]1(C(=O)N2CCOCC2)CO[C@H](c2nc(-c3ccc(F)cc3)c(-c3ccnc(NCc4ccccc4)n3)[nH]2)OC1
68%

May I ask what metabolised has been recorded for C[C@]1(C(=O)N2CCOCC2)CO[C@H](c2nc(-c3ccc(F)cc3)c(-c3ccnc(N)n3)[nH]2)OC1 ?
17.6%

Would you mind telling me what metabolised value was observed for C[C@@H](Nc1nccc(-c2[nH]c([C@H]3OC[C@](C)(C(=O)N4CCOCC4)CO3)nc2-c2ccc(F)cc2)n1)c1ccccc1 ?
81%

###

Test: Area under curve in Rat at a oral dose of 5 mg/kg
Type: ADME, organism-based
Design: dose 5 mg/kg, route oral
Settings: in vivo
readout: AUC (ng·h/mL)
# number only, unit ng·h/mL dropped from output

Need AUC, item C[C@]1(C(=O)N2CCOCC2)CO[C@H](c2nc(-c3ccc(F)cc3)c(-c3ccnc(NC4CC4)n3)[nH]2)OC1
1390

Where these numbers come from: ChEMBL document CHEMBL1134221
